Test system: Vero E6
Assay Procedure: cell viability relative to DMSO; higher = less toxic
Study Conditions: 72 h; 10000 nM
Let's look at some molecules and their measured cell viability.
# unit: % | format: bare number

# example entries with known answers
>>> readout_value("O=C1COc2nccc(-c3ccccc3F)c2CN1Cc1cc(C(F)(F)F)cc(C(F)(F)F)c1")
102
>>> readout_value("CSc1ccc(C(=O)/C=C/c2cc(C)c(OC(C)(C)C(=O)O)c(C)c2)cc1")
98.5
>>> readout_value("CCOC(=O)c1ccc(O)cc1")
99.8
>>> readout_value("Cc1cc(O)c2c(c1)C(=O)c1cc(O)cc(O)c1C2=O")
106
>>> readout_value("CCN(CC)CCOC(=O)c1cc(Cl)c(N)cc1OC")
97.3
>>> readout_value("CS(=O)(=O)Nc1ccc(Cc2noc(-c3ccc4[nH]cc(CCN)c4c3)n2)cc1")
106
>>> readout_value("CCCCC(=O)OCC(=O)[C@]1(O)Cc2c(O)c3c(c(O)c2[C@@H](O[C@H]2C[C@H](NC(=O)C(F)(F)F)[C@H](O)[C@H](C)O2)C1)C(=O)c1c(OC)cccc1C3=O")
29.2
>>> readout_value("CC(C(=O)O)c1ccc2c(c1)Cc1cccnc1O2 (centres undefined)")
105

Let us examine a further case.
Lab book: cell viability of COc1ccccc1OCC(O)CN1CCN(CC(=O)Nc2c(C)cccc2C)CC1 (centres undefined) noted as 104

###

Let's look at some compounds and their measured cell viability.
Tested on: Vero E6
Assay Procedure: cell viability relative to DMSO; higher = less toxic
Study Conditions: 72 h; 1000 nM
# unit: % | format: bare number

Lab book: cell viability of C[C@@H](O[C@H]1OCCN(Cc2n[nH]c(=O)[nH]2)[C@H]1c1ccc(F)cc1)c1cc(C(F)(F)F)cc(C(F)(F)F)c1 [aprepitant] noted as 103

Lab book: cell viability of O=C(/C=C\n1cnc(-c2cc(C(F)(F)F)cc(C(F)(F)F)c2)n1)NNc1cnccn1 [selinexor] noted as 42.4

Lab book: cell viability of CCCCC(=O)N(Cc1ccc(-c2ccccc2-c2nnn[nH]2)cc1)[C@H](C(=O)O)C(C)C noted as 100

Lab book: cell viability of OCC(CO)N[C@H]1C[C@](O)(CO)[C@@H](O)[C@H](O)[C@H]1O noted as 93.8

Lab book: cell viability of Cc1ccc(S(=O)(=O)N2CCC[C@H]2c2ccc(F)cc2)cc1 noted as 104

Lab book: cell viability of CCNC(=O)[C@H]1O[C@@H](n2cnc3c(N)ncnc32)[C@H](O)[C@@H]1O noted as 101

Lab book: cell viability of Cc1cccc(Nc2cc(Cl)nc(SCC(=O)O)n2)c1C noted as 95.9

Lab book: cell viability of COc1ccc2c(c1)CN(C)CC2c1ccc(Cl)c(Cl)c1 (stereo not drawn) noted as 95.7

###

Let's look at some compounds and their measured cell viability.
Test system: HepG2
Assay Procedure: cell viability relative to DMSO; higher = less toxic
Study Conditions: 72 h; 1000 nM
# unit: % | format: bare number

>>> readout_value("CN(C)c1ccc(C(=O)NCCCCCCC(=O)NO)cc1")
37.9
>>> readout_value("N[C@H]1CCN(O)C1=O [HA-966-(S)-(-)]")
104
>>> readout_value("Cn1cc(-c2ccc3ncc(Cc4ccc5ncccc5c4)n3n2)cn1")
35.8

Let us examine a further case.
Query CCN1CCN(Cc2ccc(-c3cc4c(N[C@H](C)c5ccccc5)ncnc4[nH]3)cc2)CC1 on HepG2; cell viability returned: 110
